assayed-target: bradykinin receptor of the B2 class (rat uterus) (Rattus norvegicus)
Construct: concentration effect curves to bradykinin (BK) on rat uterus in vitro; from tissue; host or cells: rat uterus
Sequence (P25023 whole entry): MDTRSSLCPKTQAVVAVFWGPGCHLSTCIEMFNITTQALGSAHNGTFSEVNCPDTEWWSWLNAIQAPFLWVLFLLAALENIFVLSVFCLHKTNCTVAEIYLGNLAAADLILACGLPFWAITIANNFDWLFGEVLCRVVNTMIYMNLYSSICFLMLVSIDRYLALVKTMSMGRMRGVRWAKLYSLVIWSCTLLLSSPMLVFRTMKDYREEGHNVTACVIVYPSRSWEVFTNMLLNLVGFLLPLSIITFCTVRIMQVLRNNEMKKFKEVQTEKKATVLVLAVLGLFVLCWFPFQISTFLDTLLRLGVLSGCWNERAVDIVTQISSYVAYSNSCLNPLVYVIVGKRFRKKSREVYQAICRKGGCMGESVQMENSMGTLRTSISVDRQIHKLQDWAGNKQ
protocol-text: Rat uterus (RU) in vitro, antagonism of bradykinin
condition-details: Table C; rat uterus
Peptide text beside a SMILES is read from it.
Measured % REC MONOMER, listed per entry for reference.

- compound: "CC(C)C[C@H](NC(=O)[C@@H](Cc1ccccc1)NC(=O)[C@H](CO)NC(=O)[C@H](Cc1ccccc1)NC(=O)CNC(=O)[C@@H]1C[C@@H](O)CN1C(=O)[C@@H]1CCCN1C(=O)[C@H](CCCNC(=N)N)NC(=O)[C@H](N)CCCNC(=N)N)C(=O)N[C@@H](CS)C(=O)O [CP-0148] (HELM PEPTIDE1{[dR].R.P.[Hyp].G.F.S.[dF].L.C}$$$$V2.0)"
  % REC MONOMER [%]: 100
- compound: "CC(C)C[C@H](NC(=O)[C@@H](Cc1ccccc1)NC(=O)[C@H](CO)NC(=O)[C@H](CS)NC(=O)CNC(=O)[C@@H]1C[C@@H](O)CN1C(=O)[C@@H]1CCCN1C(=O)[C@H](CCCNC(=N)N)NC(=O)[C@H](N)CCCNC(=N)N)C(=O)N[C@@H](CCCNC(=N)N)C(=O)O [CP-0144] (HELM PEPTIDE1{[dR].R.P.[Hyp].G.C.S.[dF].L.R}$$$$V2.0)"
  % REC MONOMER [%]: 95
- compound: "CC(C)C[C@H](NC(=O)[C@@H](Cc1ccccc1)NC(=O)[C@H](CO)NC(=O)[C@H](Cc1ccccc1)NC(=O)CNC(=O)[C@@H]1C[C@@H](O)CN1C(=O)[C@H](CS)NC(=O)[C@H](CCCNC(=N)N)NC(=O)[C@H](N)CCCNC(=N)N)C(=O)N[C@@H](CCCNC(=N)N)C(=O)O [CP-0142] (HELM PEPTIDE1{[dR].R.C.[Hyp].G.F.S.[dF].L.R}$$$$V2.0)"
  % REC MONOMER [%]: 80
- compound: "CC(C)C[C@H](NC(=O)[C@@H](Cc1ccccc1)NC(=O)[C@H](CO)NC(=O)[C@H](Cc1ccccc1)NC(=O)CNC(=O)[C@@H]1C[C@@H](O)CN1C(=O)[C@@H]1CCCN1C(=O)[C@H](CCCNC(=N)N)NC(=O)[C@H](N)CCCNC(=N)N)C(=O)N[C@@H](CCCNC(=N)N)C(=O)O [CP-0088, reference compound] (HELM PEPTIDE1{[dR].R.P.[Hyp].G.F.S.[dF].L.R}$$$$V2.0)"
  % REC MONOMER [%]: 100

// data source = patent US5416191A
